Source listed as patent US12350259B2.

- Test description: Atogepant-rifampin drug interaction study: atogepant plasma PK
- Type: in vivo, human
- Cond: both sexes, human, plasma, oral, Treatment B2: atogepant 60 mg + multiple-dose rifampin 600 mg; read-out: AUC0-∞ Geometric LSM, Test
Measured attribute: AUC(0-inf) (ng·h/mL)
Write the number in ng·h/mL without appending the unit.

Task: For the compound C[C@@H]1[C@H](c2c(F)ccc(F)c2F)C[C@H](NC(=O)c2cnc3c(c2)C[C@@]2(C3)C(=O)Nc3ncccc32)C(=O)N1CC(F)(F)F [atogepant] , report AUC(0-inf).
Output: 1090

* * *

- System: plasma protein
- Test description: Hepatic impairment study: atogepant plasma protein binding
- Assay type: in vitro ADME, human
- Cond: human, mild-impaired, 0 hr (predose, spiked sample); read-out: plasma protein binding, percent bound (converted)
Measured attribute: fraction unbound
Write the value as a bare number.

Task: Supply fraction unbound value. Item: C[C@@H]1[C@H](c2c(F)ccc(F)c2F)C[C@H](NC(=O)c2cnc3c(c2)C[C@@]2(C3)C(=O)Nc3ncccc32)C(=O)N1CC(F)(F)F
Output: 0.0297

* * *

- Test description: Hepatic impairment study: atogepant plasma protein binding
- Type: in vitro ADME, human
- Cond: human, plasma, oral, 60 mg, normal hepatic function, 2 hr post dose; read-out: plasma protein binding, percent bound (converted)
Measured attribute: fraction unbound at 2 h

Task: Recall and state the measured fraction unbound at 2 h for C[C@@H]1[C@H](c2c(F)ccc(F)c2F)C[C@H](NC(=O)c2cnc3c(c2)C[C@@]2(C3)C(=O)Nc3ncccc32)C(=O)N1CC(F)(F)F .
Output: 0.018

* * *

- Test description: Atogepant-itraconazole drug interaction study: atogepant plasma PK
- Type: in vivo, human
- Cond: both sexes, human, plasma, oral, atogepant + itraconazole vs atogepant alone; read-out: Tmax difference of medians
Measured attribute: Tmax (h)
Respond numerically; units are h and should not be typed.

Task: Please look at this molecule and report its Tmax: C[C@@H]1[C@H](c2c(F)ccc(F)c2F)C[C@H](NC(=O)c2cnc3c(c2)C[C@@]2(C3)C(=O)Nc3ncccc32)C(=O)N1CC(F)(F)F
Output: 1

* * *

- Test description: Food effect study (high-fat meal), atogepant IR tablet: plasma PK
- Format: in vivo, human
- Cond: both sexes, human, plasma, oral, 60 mg, Study Intervention A: 1 × 60 mg IR tablet, fed; read-out: Cmax
- Experimental: A single-center, randomized, open-label, single-dose, 2-period cross-over study was conducted to evaluate the effect of a high-fat meal on the systemic exposure of atogepant following single-dose administration of an immediate release (IR) tablet in healthy adult participants. […] Atogepant plasma concentrations were determined using a validated LC-MS/MS assay and the pharmacokinetic (PK) parameters were calculated using WinNonlin. […]
Measured attribute: Cmax
Please give the number followed by its unit.

Task: Recall and state the measured Cmax for C[C@@H]1[C@H](c2c(F)ccc(F)c2F)C[C@H](NC(=O)c2cnc3c(c2)C[C@@]2(C3)C(=O)Nc3ncccc32)C(=O)N1CC(F)(F)F [atogepant] .
Output: 594 ng/mL
